Cited source: patent US20100240093A1

tested on: isolate B715; assay: Disc diffusion antimicrobial susceptibility testing; assay type: cell-based, Staphylococcus pseudolugdunensis; details: isolate 13715; further: key: R—resistant; S—susceptible
Measured Attribute: Antimicrobial susceptibility

(Q) Form field: reported Antimicrobial susceptibility of C[C@H]1COc2c(N3CCN(C)CC3)c(F)cc3c(=O)c(C(=O)O)cn1c23
(A) R

(Q) Form field: reported Antimicrobial susceptibility of COc1cccc(OC)c1C(=O)N[C@@H]1C(=O)N2[C@@H]1SC(C)(C)[C@@H]2C(=O)O
(A) R

(Q) Form field: reported Antimicrobial susceptibility of CN(C)c1ccc(O)c2c1C[C@H]1C[C@H]3[C@H](N(C)C)C(O)=C(C(N)=O)C(=O)[C@@]3(O)C(O)=C1C2=O
(A) S

(Q) Form field: reported Antimicrobial susceptibility of CN[C@H](CC(C)C)C(=O)N[C@H]1C(=O)N[C@@H](CC(N)=O)C(=O)N[C@H]2C(=O)N[C@H]3C(=O)N[C@H](C(=O)N[C@H](C(=O)O)c4cc(O)cc(O)c4-c4cc3ccc4O)[C@H](O)c3ccc(c(Cl)c3)Oc3cc2cc(c3O[C@@H]2O[C@H](CO)[C@@H](O)[C@H](O)[C@H]2O[C@H]2C[C@](C)(N)[C@H](O)[C@H](C)O2)Oc2ccc(cc2Cl)[C@H]1O
(A) S

(Q) Form field: reported Antimicrobial susceptibility of CC[C@H]1OC(=O)[C@H](C)[C@@H](O[C@H]2C[C@@](C)(OC)[C@@H](O)[C@H](C)O2)[C@H](C)[C@@H](O[C@@H]2O[C@H](C)C[C@H](N(C)C)[C@H]2O)[C@](C)(O)C[C@@H](C)C(=O)[C@H](C)[C@@H](O)[C@]1(C)O
(A) S

New cases:
(Q) Form field: reported Antimicrobial susceptibility of Cc1nnc(SCC2=C(C(=O)O)N3C(=O)[C@@H](NC(=O)Cn4cnnn4)[C@H]3SC2)s1
(A) R

(Q) Form field: reported Antimicrobial susceptibility of CCC[C@@H]1C[C@@H](C(=O)N[C@@H]([C@H]2O[C@H](SC)[C@H](O)[C@@H](O)[C@H]2O)[C@H](C)Cl)N(C)C1
(A) S

(Q) Form field: reported Antimicrobial susceptibility of CO[C@H]1/C=C/O[C@@]2(C)Oc3c(C)c(O)c4c(O)c(c(/C=N/N5CCN(C)CC5)c(O)c4c3C2=O)NC(=O)/C(C)=C\C=C\[C@H](C)[C@H](O)[C@@H](C)[C@@H](O)[C@@H](C)[C@H](OC(C)=O)[C@@H]1C
(A) S
